This collection of values is drawn from the supplement of paper PMC10065799.

- measurement target: SHP2-C SH2;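 note: peptide library displayed on the E. coli surface as eCPX fusions, selected cells deep-sequenced, score is each peptide's frequency after selection divided by its frequency in the input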
- experiment notes: SH2 binding enrichment of the phosphorylated peptide, bacterial display (enrichment ratio); higher = better substrate or ligand; peptides without Tyr show the background
We use 0.7 as the dividing line for SH2 binding enrichment: on or above the line is 1, below is -1.

biopolymer sequence | label value
RFLERYIYNRE [HLA-DPB1_Y57] | 1
VPLATYMRIYK [RPL21_Y30] | -1
TVDASYCGGRG [ANTXR2_Y380_Y381C] | 1
GDGRFYMMEAI [PGM1_Y66_K68M] | -1
RVFRDYVLKSA [HTATIP2_Y111_D108Y_YF] | 1
VFSTDCFRVGG [NTRK2_Y706_Y706C_YF] | 1
CLSHCYFSQIR [MCM3AP_Y873_L870S] | 1
NTGFFYDLFGG [PTPN11_Y63_D61Y_YF] | 1

INPUT: Could you please find out whether CTTIHKNYMCN [TP53_Y234_Y234K] has SH2 binding enrichment that meets 0.7 or exceeds it?
OUTPUT: 1

INPUT: // inclusive: SH2 binding enrichment at least 0.7? input: FSDPSYVKQME [CDC5L_Y464_YF]
OUTPUT: 1

INPUT: Quick check, SH2 binding enrichment >= 0.7? AGARMYGVLPW [PLP1_Y207_D203G]
OUTPUT: -1

INPUT: In plain terms: is recorded SH2 binding enrichment at least 0.7 for RIVTTYIRERE [DNM2_Y463] ?
OUTPUT: -1

INPUT: Tell me whether SH2 binding enrichment is at least 0.7 here: SSAKTYSRMRL [NBEAL2_Y1835_E1833K]
OUTPUT: 1

INPUT: Could you tell me if the measured SH2 binding enrichment of TLQWMYGCDVG [HLA-B_Y123_S121W] reaches 0.7 or more?
OUTPUT: -1
